Each recorded value in this set is attributed to patent US20170313754A1.

Target: T1, human ferroportin (SLC40A1) fused in frame with GFP, stably expressed in HEK293 cells (human, UniProt Q9NP59 1-571)
T1 sequence (looked up): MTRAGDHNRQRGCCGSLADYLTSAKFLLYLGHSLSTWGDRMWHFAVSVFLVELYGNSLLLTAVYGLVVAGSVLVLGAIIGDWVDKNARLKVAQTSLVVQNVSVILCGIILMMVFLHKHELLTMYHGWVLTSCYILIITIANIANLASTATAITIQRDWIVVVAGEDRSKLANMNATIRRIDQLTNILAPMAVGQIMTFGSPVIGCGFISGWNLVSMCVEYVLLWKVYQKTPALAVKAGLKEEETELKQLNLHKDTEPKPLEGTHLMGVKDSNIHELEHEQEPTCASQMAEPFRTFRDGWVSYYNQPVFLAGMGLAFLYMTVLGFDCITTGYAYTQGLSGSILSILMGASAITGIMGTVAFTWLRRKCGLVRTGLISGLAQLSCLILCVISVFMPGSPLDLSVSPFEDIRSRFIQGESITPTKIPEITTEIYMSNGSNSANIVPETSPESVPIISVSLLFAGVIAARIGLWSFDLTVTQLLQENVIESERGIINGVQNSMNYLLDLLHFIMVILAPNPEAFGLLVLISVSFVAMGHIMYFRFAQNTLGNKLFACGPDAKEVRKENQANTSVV
Experiment: cell-based or functional assay
Numbered stars: 1 amine (or outer) side, 2 acyl side, 3 side chain; on linkers, the order of the positions; unused ones are H or OH. Bridge positions count the residues as written; N and C are the ends. Square brackets hold non-standard residues; d marks the D form. Side chains are listed from the residue outwards. Ends that are not written are not given here. * marks the point of attachment. Ida = iminodiacetic acid, O=C(CN(CC(=O)[*:3])[*:1])[*:2]; Dip = N[C@H](C(=O)O)C(c1ccccc1)c1ccccc1; Palmitoyl = CCCCCCCCCCCCCCCC(=O)*; β3hF = N[C@H](CC(=O)O)Cc1ccccc1; β3hP = O=C(O)C[C@@H]1CCCN1; Isovaleryl = CC(C)CC(=O)*; Dap = NC[C@H](N)C(=O)O
assay_endpoint: Potency EC50 (nM), ferroportin-GFP internalization/degradation

• DTHFPCIIFXPRSKGWVC (N-terminal isovaleric acid; Sarc at position 10; N-MeTrp at position 16; C-terminal amide) [Isovaleric acid-DTHFPCIIF-[Sarc]-PRSKG-[N-MeTrp]-VC-NH2] = 10

a. [Ida]TH[Dip][β3hP]CRR[β3hF]-NH2 [[IDA]-TH-[Dpa]-[bhPro]CRR-[bhPhe]-NH2]
b. Isovaleryl-DTHFPCIKFEPRSKGCK([Dap-Palmitoyl])K-NH2 (disulfide 6-16 (inferred)) [Isovaleric acid-DTHFPCIKFEPRSKGC-K(dapa-Palm)-K-NH2]
Q: // compare: a vs b , metric Potency EC50 (nM), ferroportin-GFP internalization/degradation, want the smaller Identify your pick by its label.
A: b
(b: 10 nM, a: 206 nM)
